test system: CaCo2 / CX1; details: human, Caco-2, 48 h
Counter-ions that a name gives are not always drawn.
Some compounds, each annotated with its measured CaCO2/CX1 IC50 ratio.
MEASURED_ENDPOINT: CaCO2/CX1 IC50 ratio

>>> value("O=C1C(NC2Cc3cc(Br)c(O)cc3S2)=CC2=NCCc3c[nH]c1c32 (stereo not shown) [Example 6, trifluoroacetate]")
6.3
>>> value("COc1ccc(CNC2=CC3=[N+](C)CCc4c[nH]c(c43)C2=O)cc1")
38.0
>>> value("C[N+]1=C2C=C(NCc3cccc4ccccc34)C(=O)c3[nH]cc(c32)CC1")
32.0
>>> value("C[N+]1=C2C=C(N)C(=O)c3c2c(cn3CCC#N)CC1")
1.4
>>> value("C[N+]1=C2C=C(NCc3ccccc3)C(=O)c3[nH]cc(c32)CC1")
5.4
>>> value("C[N+]1=C2C(Cl)=C(N)C(=O)c3[nH]cc(c32)CC1")
0.25
>>> value("Cc1[nH]c2c(c1C)C1=[N+](C)CCc3c[nH]c(c31)C2=O")
4.2
>>> value("C[N+]1=C2C=C(NCC(O)c3ccccc3)C(=O)c3[nH]cc(c32)CC1 (stereo not shown)")
34.0
>>> value("Cn1cc2c3c1C(=O)C(N)=CC3=[N+](Cc1ccccc1)CC2")
1.8
>>> value("C=CC[N+]1=C2C=C(N)C(=O)c3c2c(cn3C)CC1")
0.6

* * *

system: panel of >20 human tumor cell lines; test: In vitro tumor panel evaluation, Sulforhodamine B (SRB) cytotoxicity assay; format: cell-based; settings: Homo sapiens; Mean IC50 value for all 20 cell lines; 48 hours; read-out: AVG IC50
# label = bin(measured IC50), where bins are low end (below 4 µg/mL), middle (4 µg/mL to below 10 µg/mL), high end (10 µg/mL or more)

>>> class_label("Cn1cc2c3c1C(=O)C(=O)C=C3NCC2.O=C(O)C(F)(F)F")
"high end"
>>> class_label("COC(=O)CCNC1=CC2=[N+](C)CCc3cn(CCC(=O)OC)c(c32)C1=O")
"high end"
>>> class_label("C[N+]1=C2C=C(NCc3ccccc3)C(=O)c3[nH]cc(c32)CC1")
"middle"
>>> class_label("C[N+]1=C2C=C(NCc3ccc(O)cc3)C(=O)c3[nH]cc(c32)CC1")
"low end"
>>> class_label("COc1ccc(CNC2=CC3=[N+](C)CCc4c[nH]c(c43)C2=O)cc1")
"middle"
>>> class_label("C[N+]1=C2C=C(N)C(=O)c3c2c(cn3Cc2cccc(Cl)c2)CC1")
"low end"
>>> class_label("Cn1cc2c3c1C(=O)C(N)=C(Br)C3=NCC2")
"low end"
>>> class_label("Cc1[nH]c2c(c1C)C1=[N+](C)CCc3c[nH]c(c31)C2=O")
"high end"
>>> class_label("CCCCCCCCN(CCCCCCCC)C1=CC2=[N+](C)CCc3c[nH]c(c32)C1=O")
"low end"
>>> class_label("Cn1cc2c3c1C(=O)C(N/C=C/c1ccc(O)cc1)=CC3=NCC2.O=C(O)C(F)(F)F")
"low end"
>>> class_label("C[N+]1=C2C=C(N)C(=O)c3c2c(cn3CCC#N)CC1")
"middle"
>>> class_label("C[N+]1=C2C=C(NCc3ccc(C(=O)O)cc3)C(=O)c3[nH]cc(c32)CC1")
"high end"
>>> class_label("Cn1cc2ccnc3c2c1C(=O)C(N)=C3.O=C(O)C(F)(F)F")
"high end"
>>> class_label("C[N+]1=C2C=C(NCc3cccc4ccccc34)C(=O)c3[nH]cc(c32)CC1")
"middle"
>>> class_label("C[N+]1=C2C=C(NCC(O)c3ccccc3)C(=O)c3[nH]cc(c32)CC1 (stereo not drawn)")
"high end"
>>> class_label("CNC1=CC2=[N+](C)CCc3c[nH]c(c32)C1=O")
"middle"
>>> class_label("CNC1=CC2=[N+](C)CCc3cn(C)c(c32)C1=O")
"middle"
>>> class_label("COC(=O)CCNC1=CC2=[N+](C)CCc3cn(Cc4ccccc4)c(c32)C1=O")
"high end"

* * *

system: DDP (Cisplatin resistant ovarian carcinoma cell line) / S (A2780); test: SRB cytotoxicity ratio DDP/S (cisplatin resistance); type: cell-based, human; details: human, ddp/s ovarian carcinoma cells, 2880 min
MEASURED_ENDPOINT: DDP/S IC50 ratio

>>> value("Cn1cc2c3c1C(=O)C(N)=C(Br)C3=NCC2")
1.2
>>> value("CC(CCC(C)NC1=CC2=[N+](C)CCc3c[nH]c(c32)C1=O)NC1=CC2=[N+](C)CCc3c[nH]c(c32)C1=O (racemic)")
1.8
>>> value("COc1cc([C@@H]2c3cc4c(cc3[C@@H](O[C@@H]3O[C@@H]5CO[C@@H](C)O[C@H]5[C@H](O)[C@H]3O)[C@H]3COC(=O)[C@H]23)OCO4)cc(OC)c1O [Etoposide, etoposide, reference compound]")
53.0
>>> value("O=C1CC2SC3CC2(C=C1Br)C1=C(N3)C(=O)c2[nH]cc3c2C1=NCC3 (stereo not shown)")
1.4

* * *

system: panel of >20 human tumor cell lines; assay: In vitro tumor panel evaluation, Sulforhodamine B (SRB) cytotoxicity assay; type: cell-based; details: Homo sapiens; Mean IC50 value for all 20 cell lines; 48 hours; read-out: AVG IC50
MEASURED_ENDPOINT: log10(IC50) (log10 of the value in µg/mL)

>>> value("C[N+]1=C2C(Br)=C(N)C(=O)c3[nH]c(Br)c(c32)CC1 [Example 13]")
0.38
>>> value("C[N+]1=C2C(Cl)=C(N)C(=O)c3[nH]cc(c32)CC1 [Example 10]")
0.71
>>> value("COc1cccc(Cn2cc3c4c2C(=O)C(N)=CC4=[N+](C)CC3)c1 [Example 23]")
0.32
>>> value("C=CC[N+]1=C2C=C(N)C(=O)c3c2c(cn3C)CC1 [Example 31]")
0.23
>>> value("CN1CCc2cn(C)c3c2C1=CC(=O)C3=O [Example 52]")
1.40

* * *

Some molecules, each annotated with its measured IC50.
test system: panel of >20 human tumor cell lines; test: In vitro tumor panel evaluation, Sulforhodamine B (SRB) cytotoxicity assay; format: cell-based; settings: Homo sapiens, 48 h, read-out: MIN IC50
MEASURED_ENDPOINT: IC50 (µg/mL)

>>> value("COc1cc([C@@H]2c3cc4c(cc3[C@@H](O[C@@H]3O[C@@H]5CO[C@@H](C)O[C@H]5[C@H](O)[C@H]3O)[C@H]3COC(=O)[C@H]23)OCO4)cc(OC)c1O [Etoposide, etoposide, reference compound]")
0.12
>>> value("C[N+]1=C2C=C(N)C(=O)c3[nH]cc(c32)CC1")
0.06
>>> value("Cn1cc2c3c1C(=O)C(N)=CC3=[N+](Cc1ccccc1)CC2")
0.37
>>> value("CC(CCC(C)NC1=CC2=[N+](C)CCc3c[nH]c(c32)C1=O)NC1=CC2=[N+](C)CCc3c[nH]c(c32)C1=O (racemic)")
0.43
>>> value("Cn1cc2c3c1C(=O)C(N)=CC3=[N+](C)CC2")
1.03

* * *

test system: CaCo2 / CX1; settings: human, Caco-2, 48 h
Binary classification by CaCO2/CX1 IC50 ratio, with 7 as an inclusive lower bound for Criterion met; all other cases are Criterion not met.

>>> class_label("CCCCCCCCN(CCCCCCCC)C1=CC2=[N+](C)CCc3c[nH]c(c32)C1=O")
"Criterion not met"
>>> class_label("CC(CCC(C)NC1=CC2=[N+](C)CCc3c[nH]c(c32)C1=O)NC1=CC2=[N+](C)CCc3c[nH]c(c32)C1=O (racemic)")
"Criterion met"
>>> class_label("Cn1cc2c3c1C(=O)C(N)=CC3=[N+](C)CC2")
"Criterion not met"
>>> class_label("CNC1=CC2=[N+](C)CCc3c[nH]c(c32)C1=O")
"Criterion not met"
>>> class_label("C[N+]1=C2C=C(NCc3ccc(O)cc3)C(=O)c3[nH]cc(c32)CC1")
"Criterion not met"
>>> class_label("CC(C)NC1=CC2=[N+](C)CCc3c[nH]c(c32)C1=O.O=C([O-])C(F)(F)F")
"Criterion met"
>>> class_label("CNC1=CC2=[N+](C)CCc3cn(C)c(c32)C1=O")
"Criterion not met"
>>> class_label("COC(=O)CCNC1=CC2=[N+](C)CCc3cn(Cc4ccccc4)c(c32)C1=O")
"Criterion met"

* * *

Some compounds, each annotated with its measured MIP/SW620 IC50 ratio.
system: MIP / SW620; test: SRB cytotoxicity ratio MIP/SW620 (MDR, P-glycoprotein resistance); type: cell-based, human; conditions: IC50 resistant / IC50 sensitive cell line; MDR (pglycoprotein) resistance; 2880 min
MEASURED_ENDPOINT: MIP/SW620 IC50 ratio

>>> value("C[N+]1=C2C=C(NCc3ccc(O)cc3)C(=O)c3[nH]cc(c32)CC1")
4.2
>>> value("C=CC[N+]1=C2C=C(N)C(=O)c3c2c(cn3C)CC1")
8.0
>>> value("C[N+]1=C2C=C(NCc3ccc(C(=O)O)cc3)C(=O)c3[nH]cc(c32)CC1")
1.2
>>> value("C[N+]1=C2C=C(NCc3ccoc3)C(=O)c3[nH]cc(c32)CC1.O=C([O-])C(F)(F)F")
90.8
>>> value("C[N+]1=C2C=C(NCc3ccccc3)C(=O)c3[nH]cc(c32)CC1")
8.3
